Entry source: the supplement of paper PMC4466140

- target-of-assay: AgBem1-D1
- protocol-description: SPOT peptide array binding signal intensity (averaged, normalized) (arbitrary units (background-subtracted, floor 0; scale differs between SH3 domains)); higher = stronger binding of the SH3 domain to the peptide
Label Yes when SPOT peptide array binding signal intensity >= 60; otherwise No.

Query :: Is reported SPOT peptide array binding signal intensity greater than or equal to 60 here: `PPLPRAPPVPPATFE`
Result :: No

Query :: Decide: is the reported value of SPOT peptide array binding signal intensity for `LLIRWLILMPLVGSR` equal to or greater than 60?
Result :: Yes

Query :: Please tell me: is the binder `RKRAPTPPAPSRSEK` at or over 60 in terms of SPOT peptide array binding signal intensity?
Result :: Yes

Query :: State whether the measured SPOT peptide array binding signal intensity reaches 60, counting equality as reaching it, for `RSKRLFPVRPMATAH`
Result :: Yes

Query :: Please check the record `LRIKRKPVQTFFEFI` and state if its SPOT peptide array binding signal intensity is at or above 60.
Result :: Yes

Query :: Does the binder `NPTKSPPPPPSPSTM` have recorded SPOT peptide array binding signal intensity that is 60 or more?
Result :: No

Query :: Determine whether measured SPOT peptide array binding signal intensity meets or exceeds 60 for `RKNRAPPQRPRFNRE`
Result :: Yes

Query :: Given `NLKKRPPTAPQRKIS` , state whether its SPOT peptide array binding signal intensity is at least 60.
Result :: No

Query :: Is SPOT peptide array binding signal intensity for `NNNKMRPHLPPLSSG` at or above 60?
Result :: Yes

Query :: Evaluate `TIRRRAPLSLLESHT` : SPOT peptide array binding signal intensity at minimum 60?
Result :: No

Query :: Given the entry `GRSRLFPHSPLGRSS` , answer whether its SPOT peptide array binding signal intensity meets or surpasses 60.
Result :: Yes

Query :: Decide: SPOT peptide array binding signal intensity of `NAGIRPKFILALNDE` >= 60?
Result :: No

Query :: Is it the case that `RRGPAPPPPPRASRP` has SPOT peptide array binding signal intensity reaching or exceeding 60?
Result :: Yes

Query :: Form field: SPOT peptide array binding signal intensity at least 60? Entry: `QQEQNTPPLPPKPKS`
Result :: No
